# target_system: T1, human TGFβ2, mature receptor-binding domain (human, UniProt P09858 303-414 (pig entry), The mature TGFβ2 is a disulfide-linked homodimer of this 112-residue chain. The 4A11 epitope spans both monomers (p-1207).)
# T1 sequence: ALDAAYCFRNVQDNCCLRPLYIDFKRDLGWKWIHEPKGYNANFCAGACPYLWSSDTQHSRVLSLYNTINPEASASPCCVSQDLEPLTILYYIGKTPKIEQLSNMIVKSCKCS
# protocol_notes: cell-based or functional assay
measured_property: fold drop in blocking against h6F12.v1

Record h6F12.v1.9 (antibody, V domains shown) VH: EVTLKESGPVLVKPTETLTLTCTVSGFSLTTYNVHWVRQPPGKALEWMGLIWNTGGTRYNSALKSRLTISKDTSKSQVVLTMTNMDPVDTATYYCARDPVPNKWHFDFWGRGTLVTVSS VL: DIQMTQSPSTLSASVGDRVTITCLASEDIYSNLAWYQQKPGKSPKLLIYDARSLQDGVPSRFSGSESGPEYTLTISSLQPDDFATYFCQQHHAYPFTFGQGTKVEIK . Reported fold drop in blocking against h6F12.v1: 5 to 8 fold

Sourced from patent US20210301005A1
